# Tested on: human lung cancer cells (A549)
# method description: Tumor cell proliferation inhibition (CCK-8), A549
# Format: cell-based
# measurement context: 48 h

{"molecule": "C=C[C@]1(C)CC[C@@H](C(=C)C)C[C@H]1C(=C)C [β-elemene, reference compound]", "IC50, µM": 227}
